test system: Panc 05.04 cells (pancreatic cancer cells; Q699H and K700E mutations in SF3B1); assay: Cell viability assay (CellTiter-Glo, 72 hr), Panc 05.04 cells; format: cell-based; conditions: Panc 05.04 cells (mutant SF3B1); read-out: Panc 05.04 (mt SF3B1 cells), GI50
experimentalEndpoint: GI50 (nM)
Answers are plain numbers, in nM.

Go through the list and state GI50 for each entry.
1. C/C(=C\C=C\C(C)c1ccnc(N2CC[C@@H](O)C2)n1)[C@H]1OC(=O)CCCCC[C@@H](OC(=O)N2CCN(C3CCCCCC3)CC2)/C=C/[C@@H]1C (some centres unmarked)
2. CC(=O)O[C@H]1/C=C/[C@H](C)[C@@H](/C(C)=C/C=C/[C@@H](C)COC(=O)N(C)C)OC(=O)C[C@H](O)CC[C@@]1(C)O
3. C/C(=C\C=C\[C@@H](C)COC(=O)N1CCCC1)[C@H]1OC(=O)C[C@H](O)CC[C@H](C)[C@@H](OC(=O)N2CCN(C3CCCCCC3)CC2)/C=C/[C@@H]1C
4. C/C(=C\C=C\C(C)c1cccc(N2CCCC2)n1)[C@H]1OC(=O)C[C@H](O)CC[C@@](C)(O)[C@@H](OC(=O)N2CCN(C3CCCCCC3)CC2)/C=C/[C@@H]1C (some centres unmarked)
5. C/C(=C\C=C\[C@@H](C)COC(=O)N1CCCC1)[C@H]1OC(=O)C[C@H](OC(=O)N2CCCC2)CC[C@@](C)(O)[C@@H](OC(=O)N2CCN(C3CCCCCC3)CC2)/C=C/[C@@H]1C

Result block:
1: 475; 2: 74.4; 3: 10.8; 4: 122; 5: 80.1

---

test system: Panc 05.04 cells (pancreatic cancer cells; Q699H and K700E mutations in SF3B1); experiment: Cell viability assay (CellTiter-Glo, 72 hr), Panc 05.04 cells; type: cell-based; conditions: Panc 05.04 cells (mutant SF3B1); maximum achievable response in tested dose range, negative value = cellular lethality; read-out: Panc 05.04 (mt SF3B1 cells) Emax (%)
Answer each item with its documented Emax.
Give bare numbers, in %.

{"molecule": "C/C(=C\\C=C\\[C@H](C)c1ccccn1)[C@H]1OC(=O)C[C@H](O)CC[C@@](C)(O)[C@@H](OC(=O)N2CCN(C3CCCCCC3)CC2)/C=C/[C@@H]1C", "Emax (%)": -90}
{"molecule": "C/C(=C\\C=C\\[C@@H](C)c1ccccn1)[C@H]1OC(=O)CCCCC[C@@H](OC(=O)N(C)C)/C=C/[C@@H]1C", "Emax (%)": 48.2}
{"molecule": "C/C(=C\\C=C\\[C@H](C)c1nccc(C)n1)[C@H]1OC(=O)C[C@H](O)CC[C@@](C)(O)[C@@H](OC(=O)N2CCN(C3CCCCCC3)CC2)/C=C/[C@@H]1C", "Emax (%)": -76.7}

For C/C(=C\C=C\C(C)c1cccnc1)[C@H]1OC(=O)C[C@H](O)CC[C@@](C)(O)[C@@H](OC(=O)N2CCC(N3CCC(F)CC3)CC2)/C=C/[C@@H]1C (stereo partly shown) the molecule record lists Emax as 12.5

---

Answer each item with its documented IC50.
target: SF3b complexes (Homo sapiens, UniProt O75533+Q7RTV0); construct: endogenous in cells; assay: Scintillation proximity assay (SPA) with [3H]-labelled pladienolide probe; settings: wt SF3B1, read-out: SPA (wt SF3B1 cells) IC50
One number for each entry, in nM.

In the examples that follow, each entry is paired with its recorded IC50.
{"smilesCode": "COC[C@H]1CCCN1C(=O)OC[C@H](C)/C=C/C=C(\\C)[C@H]1OC(=O)C[C@H](O)CC[C@@](C)(O)[C@@H](OC(C)=O)/C=C/[C@@H]1C", "IC50 (nM)": 60.7}
{"smilesCode": "C/C(=C\\C=C\\[C@@H](C)COC(=O)N1CCC[C@H]1CO)[C@H]1OC(=O)C[C@H](O)CC[C@@](C)(O)[C@@H](OC(=O)N2CCN(C)CC2)/C=C/[C@@H]1C", "IC50 (nM)": 14}
{"smilesCode": "C/C(=C\\C=C\\[C@@H](C)COC(=O)N1CCCC1)[C@H]1OC(=O)CCCCC[C@@H](OC(=O)N2CCN(C)CC2)/C=C/[C@@H]1C", "IC50 (nM)": 3.71}
{"smilesCode": "C/C(=C\\C=C\\[C@H](C)c1ncccn1)[C@H]1OC(=O)C[C@H](O)CC[C@@](C)(O)[C@@H](OC(=O)N2CCN(C3CCCCCC3)CC2)/C=C/[C@@H]1C", "IC50 (nM)": 6.57}
{"smilesCode": "CC(=O)O[C@H]1/C=C/[C@H](C)[C@@H](/C(C)=C/C=C/[C@@H](C)COC(=O)N2CCCC2)OC(=O)C[C@H](O)CC[C@@]1(C)O", "IC50 (nM)": 2.75}
{"smilesCode": "C/C(=C\\C=C\\[C@@H](C)COC(=O)N1CC[C@@H](O)C1)[C@H]1OC(=O)C[C@H](O)CC[C@@](C)(O)[C@@H](OC(=O)N2CCN(C3CCCCCC3)CC2)/C=C/[C@@H]1C", "IC50 (nM)": 7.66}
{"smilesCode": "C/C(=C\\C=C\\[C@@H](C)COC(=O)N1CCCC1)[C@H]1OC(=O)C[C@H](O)CC[C@](C)(O)[C@@H](OC(=O)N2CCN(C)CC2)/C=C/[C@@H]1C", "IC50 (nM)": 5.69}
{"smilesCode": "C/C(=C\\C=C\\[C@@H](C)COC(=O)N1CC[C@@H](O)C1)[C@H]1OC(=O)C[C@H](O)CC[C@H](C)[C@@H](OC(=O)N2CCN(C3CCCCCC3)CC2)/C=C/[C@@H]1C", "IC50 (nM)": 5.67}

Go through the list and state IC50 for each entry.
1. CC(=O)O[C@H]1/C=C/[C@H](C)[C@@H](/C(C)=C/C=C/[C@@H](C)COC(=O)N(C)C)OC(=O)C[C@H](O)CC[C@@]1(C)O
2. C/C(=C\C=C\[C@@H](C)CCC(=O)N1CCCC1)[C@H]1OC(=O)C[C@H](O)CC[C@@](C)(O)[C@@H](OC(=O)N2CCN(C)CC2)/C=C/[C@@H]1C
3. CC(=O)O[C@H]1/C=C/[C@H](C)[C@@H](/C(C)=C/C=C/[C@@H](C)c2ccccn2)OC(=O)C[C@H](O)CC[C@@H]1C
4. CC(=O)O[C@H]1/C=C/[C@H](C)[C@@H](/C(C)=C/C=C/[C@@H](C)COC(=O)N2CCC[C@@H]2C)OC(=O)C[C@H](O)CC[C@@]1(C)O
5. CCO[C@]1(C)CC[C@@H](O)CC(=O)O[C@H](/C(C)=C/C=C/[C@](C)(O)C[C@H]2O[C@@H]2[C@H](C)[C@@H](O)CC)[C@@H](C)/C=C/[C@@H]1OC(=O)N1CCNCC1

Result block:
[18, 4.36, 538, 27.3, 9.23]

Go through the list and state IC50 for each entry.
1. C/C(=C\C=C\[C@@H](C)COC(=O)N1CC[C@@H](O)C1)[C@H]1NC(=O)CCCCC[C@@H](OC(=O)N2CCN(C)CC2)/C=C/[C@@H]1C
2. C/C(=C\C=C\[C@@H](C)COC(=O)N1CC[C@@H](N(C)C)C1)[C@H]1OC(=O)C[C@H](O)CC[C@@](C)(O)[C@@H](OC(=O)N2CCN(C3CCCCCC3)CC2)/C=C/[C@@H]1C

Result block:
1. 267
2. 9.7

Go through the list and state IC50 for each entry.
1. C/C(=C\C=C\[C@@H](C)COC(=O)N1CCCC1)[C@H]1OC(=O)C[C@H](O)CC[C@H](C)[C@@H](OC(=O)N2CCN(C)CC2)/C=C/[C@@H]1C
2. CCN(CC)C(=O)OC[C@H](C)/C=C/C=C(\C)[C@H]1OC(=O)C[C@H](O)CC[C@@](C)(O)[C@@H](OC(C)=O)/C=C/[C@@H]1C

Result block:
1. 2.96
2. 2.4

Go through the list and state IC50 for each entry.
1. C/C(=C\C=C\[C@@H](C)c1ccccn1)[C@H]1OC(=O)C[C@H](O)CC[C@@](C)(O)[C@@H](OC(=O)N2CCN(C3CCCCC3)CC2)/C=C/[C@@H]1C
2. C/C(=C\C=C\C(C)(C)COC(=O)N1CCCC1)[C@H]1OC(=O)C[C@H](O)CC[C@@](C)(O)[C@@H](OC(=O)N2CCN(C3CCCCCC3)CC2)/C=C/[C@@H]1C

Result block:
1: 3.32; 2: 5.14
